Some binders, each annotated with its measured hGIPR cAMP EC50 ratio.
# measurementTarget: T1, human gastric inhibitory peptide receptor (GIPR) (human, UniProt P48546 22-466)
# T1 sequence (looked up): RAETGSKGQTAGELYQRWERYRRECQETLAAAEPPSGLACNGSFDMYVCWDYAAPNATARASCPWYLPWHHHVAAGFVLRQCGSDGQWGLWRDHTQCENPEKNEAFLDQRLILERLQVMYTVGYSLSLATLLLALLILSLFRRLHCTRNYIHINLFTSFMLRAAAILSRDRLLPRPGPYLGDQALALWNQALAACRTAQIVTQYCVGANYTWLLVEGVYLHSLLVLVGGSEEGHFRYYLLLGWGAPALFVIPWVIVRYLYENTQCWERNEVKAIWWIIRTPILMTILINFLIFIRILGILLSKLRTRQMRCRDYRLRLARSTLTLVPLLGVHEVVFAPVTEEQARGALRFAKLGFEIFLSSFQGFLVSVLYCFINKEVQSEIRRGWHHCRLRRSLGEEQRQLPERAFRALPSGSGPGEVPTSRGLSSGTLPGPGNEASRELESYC
# measurementNotes: cell-based or functional assay
Numbered stars: 1 amine (or outer) side, 2 acyl side, 3 side chain; on linkers, the order of the positions; unused ones are H or OH. Square brackets hold non-standard residues; d marks the D form. Side chains are listed from the residue outwards. Ends that are not written are not given here. * marks the point of attachment. C20 diacid = O=C(O)CCCCCCCCCCCCCCCCCCC(=O)*; αMePhe(2-F) = C[C@](N)(Cc1ccccc1F)C(=O)O; γGlu = O=C(O)[C@H](CCC(=O)[*:2])N[*:1]; Desaminotyrosyl = O=C(CCc1ccc(O)cc1)*; AEEA = NCCOCCOCC(=O)O; Aib = CC(C)(N)C(=O)O

binder	reportedRelation	hGIPR cAMP EC50 ratio
Y[Aib]EGT[αMePhe(2-F)]TSDYSIXLDEKAQ[Aib]EFIHYLIEGGPSSGAPPPS-NH2 (not fully specified (residues 13, 17); printed as Y-Aib-EGT-αMeF(2F)-TSDYSI-αMeF-LDEK((2-[2-(2-Amino-ethoxy)-ethoxy]-acetyl)2-(γ-Glu)-CO-(CH2)18-CO2H)AQ-Aib-EFIHYLIEGGPSSGAPPPS-NH2) [Example 153]	=	1.7
YXEGTXTSDISILLDKKAQXAFIEYLIEGGPSSGAPPPS (Y-Aib-EGT-αMeF-TSDISILLDKK((2-[2-(2-Amino-ethoxy)-ethoxy]-acetyl)2-(γ-Glu)-CO-(CH2)18-CO2H)AQ-Aib-AFIEYLIEGGPSSGAPPPS-NH2) [Example 127]	=	0.917
YXEGTXTSDHSIXLDXKAQXTFIXYLIEGGPSSGAPPPS (Y-Aib-EGT-αMeF(2F)-TSDHSI-αMeF-LD-Orn-K((2-[2-(2-Amino-ethoxy)-ethoxy]-acetyl)2-(γ-Glu)-CO-(CH2)18-CO2H)AQ-Aib-TFI-(D-Glu)-YLIEGGPSSGAPPPS-NH2) [Example 171]	=	0.471
[Desaminotyrosyl][Aib]EGTFTSDYSILLDEK([AEEA-AEEA-γGlu-C20 diacid])AQQAFIEYLIEGGPSSGAPPPS-NH2 [Example 199]	<	0.00602
